biological target: hERG potassium channel (Homo sapiens, UniProt Q12809, Y652A); construct: gene KCNH2; assay: whole-cell patch clamp, transfected HEK-293 cells, […], RT; format: cell-based; settings: read-out: % inhibition at 100 nM
Sequence (Q12809 whole entry Y652A): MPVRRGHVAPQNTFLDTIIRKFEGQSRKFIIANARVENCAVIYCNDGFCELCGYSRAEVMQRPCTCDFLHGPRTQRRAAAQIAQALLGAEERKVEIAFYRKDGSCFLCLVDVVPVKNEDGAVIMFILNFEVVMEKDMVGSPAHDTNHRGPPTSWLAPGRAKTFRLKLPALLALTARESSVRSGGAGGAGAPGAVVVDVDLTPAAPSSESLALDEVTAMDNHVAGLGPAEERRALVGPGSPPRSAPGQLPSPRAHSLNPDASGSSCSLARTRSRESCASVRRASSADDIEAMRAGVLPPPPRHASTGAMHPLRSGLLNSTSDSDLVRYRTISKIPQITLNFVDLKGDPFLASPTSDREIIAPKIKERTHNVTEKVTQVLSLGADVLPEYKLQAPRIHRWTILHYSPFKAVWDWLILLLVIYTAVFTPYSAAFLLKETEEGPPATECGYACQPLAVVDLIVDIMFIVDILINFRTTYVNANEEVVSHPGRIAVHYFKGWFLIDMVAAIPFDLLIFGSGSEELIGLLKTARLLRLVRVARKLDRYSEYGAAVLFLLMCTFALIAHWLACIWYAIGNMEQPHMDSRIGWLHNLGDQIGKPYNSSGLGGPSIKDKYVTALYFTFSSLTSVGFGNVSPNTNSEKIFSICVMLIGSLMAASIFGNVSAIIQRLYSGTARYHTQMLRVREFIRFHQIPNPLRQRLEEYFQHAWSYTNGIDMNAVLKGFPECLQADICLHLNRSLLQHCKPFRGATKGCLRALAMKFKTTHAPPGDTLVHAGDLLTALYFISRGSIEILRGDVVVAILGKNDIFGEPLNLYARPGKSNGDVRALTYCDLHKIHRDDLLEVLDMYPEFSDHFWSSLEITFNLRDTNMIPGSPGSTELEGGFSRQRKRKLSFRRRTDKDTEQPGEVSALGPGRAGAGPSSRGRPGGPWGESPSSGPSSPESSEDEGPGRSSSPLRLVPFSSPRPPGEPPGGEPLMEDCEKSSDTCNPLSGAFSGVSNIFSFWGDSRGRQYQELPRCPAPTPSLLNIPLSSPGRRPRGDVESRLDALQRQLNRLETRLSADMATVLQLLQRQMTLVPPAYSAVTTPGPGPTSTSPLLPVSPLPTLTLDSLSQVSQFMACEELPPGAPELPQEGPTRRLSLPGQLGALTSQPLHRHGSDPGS
experimental.readout: inhibition at 0.1 µM (%)
Give bare numbers, in %.

Request: Form field - read-out: inhibition at 0.1 µM; system: hERG potassium channel (Homo sapiens, UniProt Q12809, Y652A); submitted item: COc1cc(N)c(Cl)cc1C(=O)NC1CCN(CCCOc2ccc(F)cc2)CC1OC (stereo not shown) [cisapride]
Result: 33.9

---

biological target: hERG potassium channel (Homo sapiens, UniProt Q12809, S624A); construct: gene KCNH2; assay: whole-cell patch clamp, transfected HEK-293 cells, […], RT; type: cell-based; details: read-out: % inhibition at 100 nM
Sequence (Q12809 whole entry S624A): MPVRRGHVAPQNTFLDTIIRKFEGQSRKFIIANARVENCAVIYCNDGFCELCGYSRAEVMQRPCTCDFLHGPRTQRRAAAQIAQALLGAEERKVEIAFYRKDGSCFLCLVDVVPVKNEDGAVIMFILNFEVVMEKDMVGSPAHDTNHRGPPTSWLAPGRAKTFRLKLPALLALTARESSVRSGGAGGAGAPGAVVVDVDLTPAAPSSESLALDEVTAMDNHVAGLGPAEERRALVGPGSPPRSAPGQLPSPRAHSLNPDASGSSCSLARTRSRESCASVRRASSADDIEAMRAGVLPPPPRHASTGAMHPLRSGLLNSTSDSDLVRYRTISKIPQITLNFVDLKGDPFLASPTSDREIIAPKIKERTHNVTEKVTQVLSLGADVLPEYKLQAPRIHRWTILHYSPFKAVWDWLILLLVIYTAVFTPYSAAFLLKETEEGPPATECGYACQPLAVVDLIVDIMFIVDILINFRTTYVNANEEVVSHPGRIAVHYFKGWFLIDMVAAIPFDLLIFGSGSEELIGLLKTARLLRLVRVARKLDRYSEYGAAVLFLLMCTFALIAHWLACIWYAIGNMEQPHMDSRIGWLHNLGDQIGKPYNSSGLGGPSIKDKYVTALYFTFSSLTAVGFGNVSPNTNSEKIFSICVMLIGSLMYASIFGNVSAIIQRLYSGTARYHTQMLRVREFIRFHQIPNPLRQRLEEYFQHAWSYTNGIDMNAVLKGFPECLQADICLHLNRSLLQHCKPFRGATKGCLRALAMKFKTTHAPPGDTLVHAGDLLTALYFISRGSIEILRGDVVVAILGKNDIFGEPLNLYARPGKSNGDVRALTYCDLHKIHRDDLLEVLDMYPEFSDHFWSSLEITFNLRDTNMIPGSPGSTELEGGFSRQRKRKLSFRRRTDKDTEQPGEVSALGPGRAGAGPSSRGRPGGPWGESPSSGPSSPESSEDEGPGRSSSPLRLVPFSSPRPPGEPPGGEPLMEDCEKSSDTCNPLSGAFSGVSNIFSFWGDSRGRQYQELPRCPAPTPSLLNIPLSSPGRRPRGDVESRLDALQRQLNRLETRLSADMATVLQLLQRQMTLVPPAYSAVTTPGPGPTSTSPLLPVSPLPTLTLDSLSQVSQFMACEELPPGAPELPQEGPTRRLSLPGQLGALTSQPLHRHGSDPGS
experimental.readout: inhibition at 0.1 µM (%)
Answers are plain numbers, in %.

Request: Form field - read-out: inhibition at 0.1 µM; system: hERG potassium channel (Homo sapiens, UniProt Q12809, S624A); submitted item: COc1cc(N)c(Cl)cc1C(=O)NC1CCN(CCCOc2ccc(F)cc2)CC1OC (stereo not shown) [cisapride]
Result: 44

---

biological target: hERG potassium channel (Homo sapiens, UniProt Q12809); construct: gene KCNH2; assay: whole-cell patch clamp, HEK-293 cells, […] inhibition at […] (RT), […] (PT); format: cell-based; conditions: read-out: % inhibition at 100 nM
Sequence (Q12809 whole entry): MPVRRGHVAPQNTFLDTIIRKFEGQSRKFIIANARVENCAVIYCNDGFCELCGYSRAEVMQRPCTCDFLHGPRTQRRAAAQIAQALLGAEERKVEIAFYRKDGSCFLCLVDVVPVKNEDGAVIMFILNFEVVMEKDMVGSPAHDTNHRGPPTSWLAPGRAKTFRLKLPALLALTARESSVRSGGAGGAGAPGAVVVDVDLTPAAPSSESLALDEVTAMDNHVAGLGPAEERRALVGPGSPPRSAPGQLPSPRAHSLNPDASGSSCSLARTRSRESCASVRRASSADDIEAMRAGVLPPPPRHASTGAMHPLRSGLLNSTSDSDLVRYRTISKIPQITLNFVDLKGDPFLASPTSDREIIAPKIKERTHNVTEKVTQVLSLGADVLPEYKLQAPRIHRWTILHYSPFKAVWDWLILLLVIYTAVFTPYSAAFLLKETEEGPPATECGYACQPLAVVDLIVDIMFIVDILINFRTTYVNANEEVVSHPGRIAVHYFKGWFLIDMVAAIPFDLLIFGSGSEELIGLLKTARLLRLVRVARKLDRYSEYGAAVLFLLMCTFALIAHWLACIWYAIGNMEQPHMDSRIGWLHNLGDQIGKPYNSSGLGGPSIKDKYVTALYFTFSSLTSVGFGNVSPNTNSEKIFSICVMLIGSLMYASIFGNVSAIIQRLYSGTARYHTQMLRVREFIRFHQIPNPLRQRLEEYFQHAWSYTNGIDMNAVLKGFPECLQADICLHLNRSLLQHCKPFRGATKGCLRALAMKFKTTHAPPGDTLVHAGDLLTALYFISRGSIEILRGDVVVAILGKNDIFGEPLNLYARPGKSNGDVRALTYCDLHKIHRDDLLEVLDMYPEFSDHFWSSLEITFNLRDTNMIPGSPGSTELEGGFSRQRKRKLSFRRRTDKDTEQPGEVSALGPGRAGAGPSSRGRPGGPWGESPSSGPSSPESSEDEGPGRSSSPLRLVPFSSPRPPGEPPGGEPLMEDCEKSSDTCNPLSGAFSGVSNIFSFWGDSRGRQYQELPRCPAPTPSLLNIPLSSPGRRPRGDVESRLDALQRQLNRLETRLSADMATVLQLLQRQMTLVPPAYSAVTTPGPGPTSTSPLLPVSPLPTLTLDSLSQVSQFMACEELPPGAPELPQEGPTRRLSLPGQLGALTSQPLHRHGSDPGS
experimental.readout: inhibition at 0.1 µM
Be sure to follow the number with its unit.

Request: For COc1cc(N)c(Cl)cc1C(=O)NC1CCN(CCCOc2ccc(F)cc2)CC1OC (stereo not shown) [cisapride] , what is its reported inhibition at 0.1 µM?
Result: 75.9%
